Tested on: HAP1 MTAP-deleted cell line
Assay: SDMA in-cell western assay, HAP1 MTAP-deleted
Type: cell-based
Settings: Homo sapiens, HAP1, SDMA in-cell western, HAP1 MTAP-deleted; read-out: HAP 1 MTAP deleted IC50
OBSERVATION_TYPE: IC50

COMPOUND	IC50
C[C@H]1CCC(c2ccc3sc(C4CCOCC4)nc3c2)N(C(=O)C(=O)Nc2cnc(N)c(C3CC3)c2)C1 (single isomer, unassigned) [Compound 1258]	< 100 nM
C[C@H]1CC[C@H](c2cn[nH]c2)N(C(=O)C(=O)Nc2cncc(C(N)=O)c2)C1 (single isomer, unassigned) [Compound 942]	100 to 1000 nM

Consider now this further compound.
Name the recorded IC50 of the item Cc1cc(NC(=O)C(=O)N2C[C@H](C)CC[C@H]2c2ccc(-c3ccn[nH]3)s2)cnc1N (racemic) [Compound 556] in your answer.
< 100 nM

Where these numbers come from: patent US11999727B2
